Entries and their measured IC50 follow.
Tested on: MCF-7 (breast cancer)
EXPERIMENT: In vitro cytotoxicity, neutral red uptake
Assay type: cell-based
SETTINGS: Homo sapiens, MCF7 wt cells, 24 h treatment, read-out: anticancer activity (IC50) MCF7 wt
OBSERVABLE: IC50 (µM)

MOLECULE	OBSERVABLE	VALUE_RELATION_SIGN	OBSERVED_RESULT
Oc1ccc2ccccc2c1CNc1c2ccccc2nc2ccccc12	IC50	=	14.1
O=C(O)c1ccc(Nc2c3ccccc3nc3ccccc23)c([N+](=O)[O-])c1	IC50	=	11.6
O=[N+]([O-])c1ccccc1Nc1c2ccccc2nc2ccccc12	IC50	>	100
O=[N+]([O-])c1ccc(Nc2c3ccccc3nc3ccccc23)c([N+](=O)[O-])c1	IC50	=	89.1
O=C(O)c1ccccc1CNc1c2ccccc2nc2ccccc12	IC50	=	20.2
O=[N+]([O-])c1ccc(O)cc1CNc1c2ccccc2nc2ccccc12	IC50	=	58.6
NCCCCC(NC(=O)c1ccc(Nc2c3ccccc3nc3ccccc23)c([N+](=O)[O-])c1)C(N)=O (centres unmarked)	IC50	=	58.6
Nc1c2ccccc2nc2ccccc12	IC50	=	11.2
